Below is a list of entries, each paired with its recorded IC50 value.
target: BCDIN3D (Homo sapiens, UniProt Q7Z5W3); assay: BCDIN3D InCellPulse thermal stability assay in transfected A549 cells; assay type: cell-based; conditions: transiently transfected A549 cells, heat shock 58° C. 15 min
Sequence (Q7Z5W3 whole entry): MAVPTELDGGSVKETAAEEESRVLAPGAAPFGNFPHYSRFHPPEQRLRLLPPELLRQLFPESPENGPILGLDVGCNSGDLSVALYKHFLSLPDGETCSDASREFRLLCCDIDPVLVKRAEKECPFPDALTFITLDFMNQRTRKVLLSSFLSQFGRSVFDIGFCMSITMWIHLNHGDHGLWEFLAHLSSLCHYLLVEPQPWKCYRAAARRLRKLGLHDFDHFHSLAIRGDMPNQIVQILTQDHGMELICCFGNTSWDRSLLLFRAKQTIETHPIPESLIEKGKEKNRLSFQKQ
Kindly answer with a numeric value in µM, unit omitted.

For [2H]C([2H])([2H])n1ncc2c(Nc3ccc(C(F)(F)F)cc3)nc(NCC3(N)CC3)nc21 , what is its reported IC50? 0.379

So what does the record say about IC50 for COC1CC(Nc2nc(NC[C@H](N)c3ccccc3)nc3c2cnn3C)C1 (some centres unmarked) ? 0.461

For the compound shown here, Cn1ncc2c(Nc3ccc(C(F)(F)F)cc3)nc(NCC3(N)CC3)nc21 , give the reported IC50. 0.329

Next:
Give the measured IC50 of C[C@H](Nc1nc(NC[C@H](N)c2ccccc2)nc2c1cnn2C)C(F)(F)F [Compound 4.98] . 0.232

Recorded IC50 for Cn1ncc2c(NCC(F)F)nc(NC[C@H](N)c3ccccc3)nc21 , please? 0.412

====

Entries and their measured pIC50 follow.
molecular target: BCDIN3D (Homo sapiens, UniProt Q7Z5W3); assay: BCDIN3D IC50 RFMS (RapidFire) assay with mini-helix; type: biochemical; details: mini-helix substrate 0.2 μM, SAM 6 μM, 25 nM enzyme
# pIC50 = -log10(concentration in molar units)

Past entries and their recorded results:
So what's the measured pIC50 for this one? Cn1ncc2c(NC(C)(C)C)nc(NC[C@H](N)c3ccccc3Cl)nc21 [Compound 5.11] 6.49

Entry Cn1ncc2c(NC34CC(C3)C4)nc(NC[C@H](N)c3ccccc3)nc21 [Compound 4.66] has what pIC50? 6.89

Given Cc1nn(C)c2nc(NCC3(N)CC3)nc(Nc3ccc(C(F)(F)F)cc3)c12 [Compound 2.30] , state its recorded pIC50. 6.26

Further cases:
Value lookup for pIC50; key = Cn1ncc2c(NC(C)(C)C)nc(NCC(N)c3cccc(C4CC4)c3)nc21 (stereo not drawn) [Compound 5.32] 7.15

Could you share which pIC50 value was measured for Cn1ncc2c(NCC3CC3(Cl)Cl)nc(NC[C@H](N)c3ccccc3)nc21 (stereo partly drawn) [Compound 4.115] ? 7.41

Please report the recorded pIC50 for Cc1ccc(CNc2nc(NCC(N)CF)nc3c2cnn3C)cc1Cl (stereo not drawn) [Compound 3.25] . 5.21

====

molecular target: BCDIN3D (Homo sapiens, UniProt Q7Z5W3); assay: BCDIN3D InCellPulse thermal stability assay in transfected A549 cells; type: cell-based; settings: transiently transfected A549 cells, heat shock 58° C. 15 min
Mark each entry label 1 if its IC50 sits below 2000 nM, and label 0 for all others.

Solved entries:
Please determine if COc1ccc(CNc2nc(NCC(N)c3ccccc3)nc3c2cnn3C)c(OC)c1 (stereo not shown) is below 2000 nM in terms of IC50. label 1

Dear reviewer, please state whether Cn1ncc2c(NC3CC(F)(F)C3)nc(NCC(N)c3cccnc3)nc21 (stereo not shown) has IC50 strictly beneath 2000 nM. label 0

Given Cn1ncc2c(Nc3ccc(F)cc3)nc(NCC3(N)CC3)nc21 , is recorded IC50 strictly lower than 2000 nM? label 0

Here's an entry: Cn1ncc2c(Nc3ccc(OC(F)F)cc3)nc(NCC3(N)CC3)nc21 . Is its IC50 below 2000 nM? label 1

I'd appreciate it if you could check whether CC(C)[C@@H](C)Nc1nc(NC[C@H](N)c2ccccc2)nc2c1cnn2C has IC50 smaller than 2000 nM. label 1

Next up:
Find out if reported IC50 for Cn1ncc2c(NC3CC(C(F)(F)F)C3)nc(NC[C@H](N)c3ccccc3)nc21 (stereo partly shown) is less than 2000 nM label 1
